The reported numbers originate from patent US11339122B2.

Task for the reader: assign each of the following compounds its reported inhibition at 30 µM.
- Assay System: hTRPV1 (Homo sapiens (Human), UniProt Q8NER1)
- Sequence (Q8NER1 whole entry): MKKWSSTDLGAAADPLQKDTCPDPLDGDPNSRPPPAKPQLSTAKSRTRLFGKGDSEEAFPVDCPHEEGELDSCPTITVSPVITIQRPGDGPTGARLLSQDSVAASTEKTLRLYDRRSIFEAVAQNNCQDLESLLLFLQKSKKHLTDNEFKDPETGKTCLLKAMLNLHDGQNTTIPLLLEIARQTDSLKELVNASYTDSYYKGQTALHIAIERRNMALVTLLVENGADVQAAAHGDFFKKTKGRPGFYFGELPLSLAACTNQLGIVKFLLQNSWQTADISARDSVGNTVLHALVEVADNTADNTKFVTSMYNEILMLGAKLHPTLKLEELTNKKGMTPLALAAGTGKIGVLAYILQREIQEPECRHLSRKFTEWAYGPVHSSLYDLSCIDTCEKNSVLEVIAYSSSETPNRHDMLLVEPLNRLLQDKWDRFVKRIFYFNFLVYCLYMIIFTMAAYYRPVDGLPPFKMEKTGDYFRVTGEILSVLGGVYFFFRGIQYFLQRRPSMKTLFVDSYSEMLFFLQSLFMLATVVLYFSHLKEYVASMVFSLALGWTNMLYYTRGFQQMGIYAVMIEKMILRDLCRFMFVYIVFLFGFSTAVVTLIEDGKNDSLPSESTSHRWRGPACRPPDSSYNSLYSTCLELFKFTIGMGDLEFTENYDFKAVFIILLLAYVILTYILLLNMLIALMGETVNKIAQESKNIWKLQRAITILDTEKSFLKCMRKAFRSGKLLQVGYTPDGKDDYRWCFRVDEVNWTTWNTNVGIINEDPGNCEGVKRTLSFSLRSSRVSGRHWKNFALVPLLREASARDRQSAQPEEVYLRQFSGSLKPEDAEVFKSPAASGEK
- Assay Remarks: Ca2+ uptake assay, capsaicin antagonism (CHO-hTRPV1 cells)
- Type: cell-based
- Particulars: compound at 30 μM, capsaicin 30 nM
Form entry: value (%) — number only.

**Query** Any idea what inhibition at 30 µM came out for CCOC(=O)c1ccc(NC(=O)Nc2cc(Cl)ccc2C)cc1 [Compound 6] on hTRPV1 (Homo sapiens (Human), UniProt Q8NER1)?
**Result** 34

**Query** Can you handle COc1ccc(C)cc1NC(=O)Nc1ccccc1F [Compound 8] next?
**Result** 28

**Query** Can you handle Cc1cc(O)c(C(C)C)cc1NC(=O)Nc1ccc(Br)cc1 [Compound 9] next?
**Result** 27

###

- Assay System: hTRPV1 (Homo sapiens (Human))
- Assay Remarks: Ca2+ uptake assay, capsaicin antagonism (CHO-hTRPV1 cells)
- Type: cell-based
- Particulars: capsaicin (30 nM) stimulated Ca2+ uptake, listed as compound 2
Measured Metric: pKi
pKi here is simply -log10 of the concentration when that concentration is written in mol/L.

**Query** Would you kindly share the measured pKi for Cc1cc([N+](=O)[O-])ccc1NC(=O)Nc1cccc(F)c1 ?
**Result** 5.35

###

Task for the reader: assign each of the following compounds its reported % inhibition at 30 μM (capsaicin antagonism).
- Assay System: hTRPV1 (Homo sapiens (Human), UniProt Q8NER1)
- Assay Remarks: Ca2+ uptake assay, capsaicin antagonism (CHO-hTRPV1 cells)
- Format: cell-based
- Particulars: compound at 30 μM, capsaicin 30 nM
Form entry: value (%) — number only.

**Query** Would you kindly share the measured % inhibition at 30 μM (capsaicin antagonism) for O=C(Nc1ccc(F)c([N+](=O)[O-])c1)Nc1cccc2c(O)cccc12 [Compound 14] ?
**Result** 100

**Query** Can you handle CSc1ccc(NC(=O)Nc2ccc(Cl)cc2[N+](=O)[O-])cc1 [Compound 11] next?
**Result** 61

**Query** Can you handle O=C(Nc1cccc(C(F)(F)F)c1)Nc1ccc([N+](=O)[O-])cc1Cl [Compound 1] next?
**Result** 92.2

**Query** Can you handle O=C1C(=O)c2cc(Br)cc([N+](=O)[O-])c2-c2ccc(Br)cc21 [Compound 17] next?
**Result** 66

###

- Assay System: hTRPV1 (Homo sapiens (Human))
- Assay Remarks: Ca2+ uptake assay, capsaicin antagonism (CHO-hTRPV1 cells)
- Type: cell-based
- Particulars: capsaicin (30 nM) stimulated Ca2+ uptake
Measured Metric: log10(Ki) (log10 of the value in µM)
All values: base-10 log of Ki in µM.

**Query** Would you kindly share the measured log10(Ki) for Cc1c(Cl)cccc1NC(=O)Nc1cccc(O)c1 ?
**Result** -0.25

**Query** Can you handle Cc1c(Cl)cccc1NC(=O)Nc1cccc2c(O)cccc12 next?
**Result** -0.31

**Query** Can you handle CCOC(=O)c1ccc(NC(=O)Nc2cccc(Cl)c2)cc1 next?
**Result** 1.07

**Query** Can you handle CSc1ccc(NC(=O)Nc2ccc(Cl)cc2[N+](=O)[O-])cc1 next?
**Result** 0.57

**Query** Can you handle O=C(Nc1cc(C(F)(F)F)ccc1Cl)c1ccccc1F next?
**Result** 0.85

**Query** Can you handle Cc1ccc(Cl)cc1NC(=O)Nc1cccc2c(O)cccc12 next?
**Result** 0.57

**Query** Can you handle O=C(Nc1ccc(F)c([N+](=O)[O-])c1)Nc1cccc2c(O)cccc12 next?
**Result** -0.33

**Query** Can you handle O=C1C(=O)c2cc(Br)cc([N+](=O)[O-])c2-c2ccc(Br)cc21 next?
**Result** 0.33
